Sourced from paper PMC13397619

Each entry below carries its reported enrichment.
B1: NLV3 TCR beta chain (CDR3β only) (parent)
chain: ASSPTGGSPSPLH
partner: MLVPMVATV

Variants of: B1
experiment: T-Switch: Jurkat TCRβ−/− cells expressing a CDR3 saturation-mutagenesis library, stained with two peptide-HLA-A*02:01 tetramers (original and novel peptide) plus anti-CD3, FACS-sorted into four gates, gDNA sequenced
conditionSummary: with HLA-A*02:01 with peptide … (NLV 3-1, the original bait), tetramers 1 µg/mL, 30 min on ice, DP and SW gates expanded about 10 days between rounds ('two to three rounds of selection' in the Methods), gate SP: higher = more of the variant in the gate that binds the original peptide and not the novel one = retained original binding. Fold enrichment of the CDR3 variant in one FACS gate of a two-tetra, unresolved parent, parent is a CDR3 fragment, scale: fold enrichment, numbering: sequential-on-construct, sequence …
observable: enrichment

INSERT INTO results (mutationlabel, resultvalue) VALUES
  ('[…] (CDR3 as printed); A1L derived by comparing it with the table''s wild-type CDR3 ASSPTGGSPSPLH', 0),
  ('[…] (CDR3 as printed); T5W derived by comparing it with the table''s wild-type CDR3 ASSPTGGSPSPLH', 15.1),
  ('[…] (CDR3 as printed); H13Q derived by comparing it with the table''s wild-type CDR3 ASSPTGGSPSPLH', 5.02),
  ('[…] (CDR3 as printed); P4E derived by comparing it with the table''s wild-type CDR3 ASSPTGGSPSPLH', 3.03),
  ('[…] (CDR3 as printed); L12M derived by comparing it with the table''s wild-type CDR3 ASSPTGGSPSPLH', 2.27),
  ('[…] (CDR3 as printed); G7D derived by comparing it with the table''s wild-type CDR3 ASSPTGGSPSPLH', 0),
  ('[…] (CDR3 as printed); A1T derived by comparing it with the table''s wild-type CDR3 ASSPTGGSPSPLH', 0),
  ('[…] (CDR3 as printed); S8P derived by comparing it with the table''s wild-type CDR3 ASSPTGGSPSPLH', 0),
  ('[…] (CDR3 as printed); S2C derived by comparing it with the table''s wild-type CDR3 ASSPTGGSPSPLH', 5.16),
  ('[…] (CDR3 as printed); G6M derived by comparing it with the table''s wild-type CDR3 ASSPTGGSPSPLH', 0),
  ('[…] (CDR3 as printed); G7T derived by comparing it with the table''s wild-type CDR3 ASSPTGGSPSPLH', 0);
